- TARGET_OF_ASSAY: ShHTL7 (Striga hermonthica, UniProt A0A0M3PNA2)
- Sequence (A0A0M3PNA2 entry or part of it): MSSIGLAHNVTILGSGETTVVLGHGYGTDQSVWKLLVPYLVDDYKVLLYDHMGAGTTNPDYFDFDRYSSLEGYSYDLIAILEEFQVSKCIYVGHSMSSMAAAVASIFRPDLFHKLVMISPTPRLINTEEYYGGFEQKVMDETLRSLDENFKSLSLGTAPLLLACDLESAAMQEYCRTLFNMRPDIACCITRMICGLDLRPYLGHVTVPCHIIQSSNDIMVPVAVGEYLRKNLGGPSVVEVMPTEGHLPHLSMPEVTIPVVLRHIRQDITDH
- ASSAY_NOTES: Competitive inhibition of ShHTL7 with Yoshimulactone Green (YLG) as substrate
- Type: biochemical
- CONDITIONS_USED: YLG used as the substrate; means ± SD, n = 3; read-out: IC50 (Supplementary Table 1)
MEASURED_PROPERTY: IC50 (µM)
Express it in µM; write the number only.

Inquiry: Give IC50 for O=C(COc1ccc([N+](=O)[O-])cc1Cl)N1CCN(CC2CC3C=CC2C3)CC1 (centres unmarked) tested on ShHTL7 (Striga hermonthica, UniProt A0A0M3PNA2).
Reply text: 11.6

Inquiry: # assay system ShHTL7 (Striga hermonthica, UniProt A0A0M3PNA2): give IC50 of O=C(COc1ccc(Cl)cc1Cl)N1CCN(CC2CC3C=CC2C3)CC1 (centres unmarked)
Reply text: 9.22

Inquiry: Lab note: record IC50 of CS(=O)(=O)c1ccc(OCC(=O)N2CCN(CC3CC4C=CC3C4)CC2)cc1 (centres unmarked) tested on ShHTL7 (Striga hermonthica, UniProt A0A0M3PNA2).
Reply text: 24.1

Inquiry: Look up ShHTL7 (Striga hermonthica, UniProt A0A0M3PNA2) data: IC50 of O=C(COc1ccc(C(F)(F)F)cc1)N1CCN(CC2CC3C=CC2C3)CC1 (centres unmarked) , then report it.
Reply text: 12.8

Inquiry: Enter IC50 (test system ShHTL7 (Striga hermonthica, UniProt A0A0M3PNA2)) for Cc1cc(Cl)ccc1OCC(=O)N1CCN(CC2CC3C=CC2C3)CC1 (centres unmarked)
Reply text: 8.28
